target: JAK2 (recombinant purified GST-tagged catalytic domain) (Homo sapiens (Human)); experiment: Jak Biochemical HTRF Assay (JAK2); conditions: [ATP] 8.5 μM
Sequence (O60674 849-1124): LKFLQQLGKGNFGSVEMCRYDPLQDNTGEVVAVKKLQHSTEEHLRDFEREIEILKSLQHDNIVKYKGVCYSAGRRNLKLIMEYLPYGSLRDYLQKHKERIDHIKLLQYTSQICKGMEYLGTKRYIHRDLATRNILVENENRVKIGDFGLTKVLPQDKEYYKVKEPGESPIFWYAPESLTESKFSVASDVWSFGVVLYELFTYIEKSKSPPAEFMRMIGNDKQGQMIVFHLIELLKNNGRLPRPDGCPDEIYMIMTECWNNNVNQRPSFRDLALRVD
endpoint: IC50 (nM)

A selection of reference data follows.
COC(=O)N1CCC(CC#N)(n2nc(Nc3ccc4c(c3)CN(CC3CCCC3)S4(=O)=O)c3c(=O)[nH]ccc32)CC1 [Example 5-75] ... 0.37
CN(C)S(=O)(=O)c1ccc(Nc2nn(C3(CC#N)CCN(C(=O)O[C@@H]4CCOC4)CC3)c3cc[nH]c(=O)c23)cc1 [Example 11-6] ... 0.47
CN(C)S(=O)(=O)c1ccc(Nc2nn(C3(CC#N)CCN(CCc4ccccc4)CC3)c3cc[nH]c(=O)c23)cc1 [Example 8-18] ... 14

1 = CN(C)S(=O)(=O)c1ccc(Nc2nn(C3(CC#N)CCN(C(=O)C4Cc5ccccc5C4)CC3)c3cc[nH]c(=O)c23)cc1 [Example 9-18]
2 = CC(C)(C)OC(=O)[C@H]1CC[C@@](CC#N)(n2nc(Nc3ccc([C@@H](N)C(F)(F)F)cc3)c3c(=O)[nH]ccc32)CO1 (single isomer, unassigned) [Example 5-50]
Could you tell me which of 1 and 2 has the lower IC50 reading? Reply with the label of the item you choose.
1
(1: 0.39 nM, 2: 34.5 nM)
